Measured values drawn from PubChem BioAssay AID1985 for this set.

For each record, write down the corresponding IC50.
Tested on: S. Typhi PhoP-promoter GFP reporter, fluorescence, 4 h
Assay: PhoP regulon inhibitor project modified counter assay, GFP fluorescence readout, dose response (AID 1985)

## Task State the recorded IC50 for this entry: C#CCOCCOCCOCCNc1nc(N2CCN(C(=O)[C@H](Cc3cc4ccccc4[nH]3)n3cc([C@@H](N)C(C)CC)nn3)CC2)nc(N2CCN(C(=O)[C@H](Cc3cc4ccccc4[nH]3)n3cc([C@@H](N)Cc4ccc(O)cc4)nn3)CC2)n1 (some centres undefined)
## Result 60 µM

## Task May I ask what IC50 has been recorded for Oc1cc(Cl)ccc1Oc1ccc(Cl)cc1Cl ?
## Result 0.369 µM

## Task Entry CCCCCCCCCCCCCCCC[n+]1ccc(C(N)=O)cc1 : reported IC50 = ?
## Result 15.4 µM

## Task IC50 lookup needed for Cc1ccc(S(=O)(=O)NNc2ccccc2)cc1 , thanks.
## Result 134 µM

----------
Answer each item with its documented pIC50.
Test system: S. Typhi PhoP-promoter GFP reporter, fluorescence, 4 h
Experiment: PhoP regulon inhibitor project modified counter assay, GFP fluorescence readout, dose response (AID 1985)
pIC50: −log10 of the molar value.

## Task I have this compound here, CCCCCCCCNc1ncnc2ccccc12 , and I need its recorded pIC50.
## Result 4.45

## Task # input compound: COc1ccc(NC(=O)COC(=O)c2ccc([N+](=O)[O-])o2)cc1Cl ; wanted: its pIC50
## Result 4.33

## Task # get_value(readout='pIC50', item= O=C(CSc1ccccn1)N/N=C/c1c[nH]c2ccccc12 )
## Result 3.87

## Task Dear colleague, I am looking for the recorded pIC50 of the following compound: OCCCNc1c2ccccc2nc2ccccc12
## Result 3.87

## Task Fill blank: measured pIC50 of the compound CCCCCCCNC(=O)C1(CC2CC(c3ccc(Cl)cc3)=NO2)CCNCC1 (stereo not given) is ____.
## Result 4.41

## Task Requested read-out: pIC50. Entry: CCOc1cc(C(c2c(C)[nH][nH]c2=O)c2c(C)[nH][nH]c2=O)cc([N+](=O)[O-])c1O
## Result 4.12

## Task Please give the measured pIC50 for this compound: Fc1ccc(CCNCc2ccccc2Cl)cc1
## Result 4.16

## Task Name the recorded pIC50 for O=C(CSc1nnc(-c2ccccc2)n1-c1ccc(Cl)cc1)NC1CCS(=O)(=O)C1 (stereo not given) .
## Result 4.51

## Task // lookup pIC50 for C[C@H]1c2cccc(O)c2C(O)=C2C(=O)[C@]3(O)C(O)=C(C(N)=O)C(=O)[C@@H](N(C)C)C3[C@@H](O)C21 (stereo not given in full)
## Result 5.93

## Task Suppose we examine the compound C[C@H]1COc2c(N3CCN(C)CC3)c(F)cc3c(=O)c(C(=O)O)cn1c23 ; what pIC50 value has been reported?
## Result > 6.64

----------
Test system: S. Typhi PhoP-promoter GFP reporter, fluorescence, 4 h
Assay: PhoP regulon inhibitor project modified counter assay, GFP fluorescence readout, dose response (AID 1985)
metric_name: IC50

## Task Hello, I am looking for reported IC50 with S. Typhi PhoP-promoter GFP reporter, fluorescence, 4 h for N=c1n(CCN2CCCCC2)c2ccccc2n1CC(O)COc1ccccc1 (centres undefined) . Could you help?
## Result 90.2 µM

## Task Which measured IC50 belongs to NC1=NC[C@@H](Cc2ccc(O)cc2)N1CCCCC1CCCCC1 , tested on S. Typhi PhoP-promoter GFP reporter, fluorescence, 4 h?
## Result 32.5 µM

## Task S. Typhi PhoP-promoter GFP reporter, fluorescence, 4 h / IC50 / O=C(N/N=C/c1cc([N+](=O)[O-])ccc1O)C(O)(c1ccccc1)c1ccccc1 : value?
## Result 60.4 µM

## Task Lab request: please report IC50 under test system S. Typhi PhoP-promoter GFP reporter, fluorescence, 4 h for CO[C@H]1C=CO[C@@]2(C)Oc3c(C)c(O)c4c(O)c(c(C=NN5CCN(C)CC5)c(O)c4c3C2=O)NC(=O)C(C)=CC=C[C@H](C)[C@H](O)[C@@H](C)[C@@H](O)[C@@H](C)[C@H](OC(C)=O)[C@@H]1C
## Result 23.8 µM

## Task Give IC50 (S. Typhi PhoP-promoter GFP reporter, fluorescence, 4 h) of the following compound: O=C(CCN1CCOCC1)c1ccc(Br)cc1
## Result 129 µM

## Task Test system S. Typhi PhoP-promoter GFP reporter, fluorescence, 4 h; read-out IC50; what value for O=C(Nc1ccc(Cl)cc1)Nc1ccc2c(c1)N1CCN=C1S2 ?
## Result 57.1 µM

## Task What measured IC50 is associated with Clc1cc(Br)ccc1OCCCNCc1ccccc1 on S. Typhi PhoP-promoter GFP reporter, fluorescence, 4 h?
## Result 45.5 µM

## Task Field: IC50 (S. Typhi PhoP-promoter GFP reporter, fluorescence, 4 h). Entry: Cc1cc(C)nc(SCC(=O)Nc2sc3c(c2C#N)CCC(C)C3)n1 (centres undefined)
## Result 41.8 µM

## Task Entry Cc1cc(O)c2c(c1)C(=O)C13C(=C2O)C(=O)[C@H]2[C@@H](O)[C@@H]1[C@H]1[C@H](O)[C@@H]3C(=O)C3=C(O)c4c(O)cc(C)cc4C(=O)C312 (some centres undefined) , system S. Typhi PhoP-promoter GFP reporter, fluorescence, 4 h: what IC50 was measured?
## Result 19.1 µM
